target: 5-hydroxytryptamine receptor 1A (Rattus norvegicus, UniProt P19327)
Sequence (P19327 whole entry): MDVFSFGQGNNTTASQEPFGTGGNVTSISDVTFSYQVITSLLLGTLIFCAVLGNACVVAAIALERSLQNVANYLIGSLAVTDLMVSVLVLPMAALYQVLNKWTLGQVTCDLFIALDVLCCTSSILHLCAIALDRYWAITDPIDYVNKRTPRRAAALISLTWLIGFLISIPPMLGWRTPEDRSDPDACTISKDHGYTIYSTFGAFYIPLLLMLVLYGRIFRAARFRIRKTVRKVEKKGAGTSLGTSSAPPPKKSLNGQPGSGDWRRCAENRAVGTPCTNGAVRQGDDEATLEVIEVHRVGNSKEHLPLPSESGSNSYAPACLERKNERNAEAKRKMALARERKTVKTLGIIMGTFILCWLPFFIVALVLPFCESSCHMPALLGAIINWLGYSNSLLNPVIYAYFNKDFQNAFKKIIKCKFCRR
pKi: −log10 of the molar value.
Quantity Name: pKi

Structure String | Test System | pKi
CC(C)Oc1ccccc1N1CCN(CCCCn2nc(-n3ccnc3)ccc2=O)CC1 | 5-hydroxytryptamine receptor 1A (Rattus norvegicus, UniProt P19327) | 8.17
O=c1ccc(-n2ccnc2)nn1CCCCN1CCN(c2ncccn2)CC1 | 5-hydroxytryptamine receptor 1A (Rattus norvegicus, UniProt P19327) | 6.05
O=c1ccc(-n2ccc3ccccc32)nn1CCCCN1CCN(c2ncccn2)CC1 | 5-hydroxytryptamine receptor 1A (Rattus norvegicus, UniProt P19327) | 6.68

(a) CC(C)Oc1ccccc1N1CCN(C(=O)CCCn2nc(-n3ccnc3)ccc2=O)CC1
(b) O=c1ccc(-n2ccnc2)nn1CCCCN1CCN(c2cccc(C(F)(F)F)c2)CC1
**Query** Between a and b , whose measured pKi reads higher? Give the label under which the chosen entry appears.
**Result** b
(b: 7.89, a: 5.81)
